Exercise: for every item that follows, state its recorded MIC80.
System: Candida albicans
Procedure Details: Antifungal activity against Candida albicans ATCC 24433 overexpressing ADPDR5-GFP assessed as inhibition of fungal growth by broth microdilution method
Format: functional
Give bare numbers, in µg/mL.

Fill in MIC80 for each of the 5 molecules listed.
1. CC/C(=C\c1ccc(OC)cc1)[N+](=O)[O-]
2. COc1ccc(/C=C/[N+](=O)[O-])cc1OC
3. C/C(=C\c1ccc(N(C)C)cc1)[N+](=O)[O-]
4. COc1ccc(/C=C(\C)[N+](=O)[O-])cc1
5. O=[N+]([O-])/C=C/c1cccc(O)c1

1. 2
2. 16
3. 16
4. 4
5. 4

Batch of 3 molecules: report MIC80 for each.
1. O=[N+]([O-])/C=C/c1ccc(O)cc1
2. CC/C(=C\c1ccc(OC)c(OC)c1)[N+](=O)[O-]
3. CC/C(=C\c1cccc([N+](=O)[O-])c1)[N+](=O)[O-]

[4, 8, 16]

###

Test system: Candida albicans
Procedure Details: Antifungal activity against Candida albicans ATCC 24433 overexpressing ADCaMDR1-GFP assessed as inhibition of fungal growth by broth microdilution method
Assay type: functional
Would you kindly list MIC80 for each of these compounds?

Solved cases (2 shown):
molecular_string=CC/C(=C\c1ccc(OC)cc1)[N+](=O)[O-] result="2 µg/mL"
molecular_string=CC/C(=C\c1ccc(OC)c(OC)c1)[N+](=O)[O-] result="8 µg/mL"

Give MIC80 for each of the items listed below.
1. CC/C(=C\c1cccc([N+](=O)[O-])c1)[N+](=O)[O-]
2. COc1ccc(/C=C/[N+](=O)[O-])cc1OC
3. O=[N+]([O-])/C=C/c1ccc(O)cc1

8 µg/mL
16 µg/mL
4 µg/mL
